- target.system: HA of ca A/Wuhan/359/95 (H3N2) virus (influenza A virus)
- protocol.details: cell-based or functional assay
parameter: Neutralization IC50, H3-WH95 (µg/mL)
Output spec: scalar in µg/mL, unitless text.

Task: Suppose we examine the binder Antibody 3 (antibody, V domains shown) VH: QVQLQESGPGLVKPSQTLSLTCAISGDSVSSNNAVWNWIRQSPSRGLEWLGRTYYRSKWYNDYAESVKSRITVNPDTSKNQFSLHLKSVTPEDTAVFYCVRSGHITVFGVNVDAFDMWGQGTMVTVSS VL: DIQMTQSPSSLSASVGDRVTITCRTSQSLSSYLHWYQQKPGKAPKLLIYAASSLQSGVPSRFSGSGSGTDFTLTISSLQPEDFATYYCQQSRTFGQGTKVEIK ; what Neutralization IC50, H3-WH95 value has been reported?
Output: 3.96
